target desc: Protein cereblon/Dual specificity protein kinase TTK (Homo sapiens, UniProt P33981+Q96SW2)
Sequence (P33981 whole entry, looked up): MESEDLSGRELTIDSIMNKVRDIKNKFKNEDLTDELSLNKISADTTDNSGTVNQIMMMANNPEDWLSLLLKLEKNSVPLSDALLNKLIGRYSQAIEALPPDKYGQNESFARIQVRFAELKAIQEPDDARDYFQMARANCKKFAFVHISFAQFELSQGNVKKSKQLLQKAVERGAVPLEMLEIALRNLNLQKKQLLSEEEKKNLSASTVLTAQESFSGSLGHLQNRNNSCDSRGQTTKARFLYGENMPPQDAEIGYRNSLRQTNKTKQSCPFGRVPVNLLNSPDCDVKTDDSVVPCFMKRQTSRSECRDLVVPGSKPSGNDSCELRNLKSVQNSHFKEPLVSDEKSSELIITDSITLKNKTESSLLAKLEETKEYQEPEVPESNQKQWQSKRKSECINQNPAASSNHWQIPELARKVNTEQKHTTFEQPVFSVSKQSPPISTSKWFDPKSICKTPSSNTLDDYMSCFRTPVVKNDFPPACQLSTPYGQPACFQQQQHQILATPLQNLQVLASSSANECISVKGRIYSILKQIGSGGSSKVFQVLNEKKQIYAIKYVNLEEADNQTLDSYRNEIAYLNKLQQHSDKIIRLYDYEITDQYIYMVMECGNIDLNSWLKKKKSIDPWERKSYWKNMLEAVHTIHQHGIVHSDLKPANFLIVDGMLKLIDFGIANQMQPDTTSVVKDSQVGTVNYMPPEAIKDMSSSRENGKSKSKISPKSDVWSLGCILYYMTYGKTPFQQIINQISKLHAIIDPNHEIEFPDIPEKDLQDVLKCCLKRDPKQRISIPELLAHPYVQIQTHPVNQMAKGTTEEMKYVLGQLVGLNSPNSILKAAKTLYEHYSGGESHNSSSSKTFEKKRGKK
Sequence (Q96SW2 whole entry, looked up): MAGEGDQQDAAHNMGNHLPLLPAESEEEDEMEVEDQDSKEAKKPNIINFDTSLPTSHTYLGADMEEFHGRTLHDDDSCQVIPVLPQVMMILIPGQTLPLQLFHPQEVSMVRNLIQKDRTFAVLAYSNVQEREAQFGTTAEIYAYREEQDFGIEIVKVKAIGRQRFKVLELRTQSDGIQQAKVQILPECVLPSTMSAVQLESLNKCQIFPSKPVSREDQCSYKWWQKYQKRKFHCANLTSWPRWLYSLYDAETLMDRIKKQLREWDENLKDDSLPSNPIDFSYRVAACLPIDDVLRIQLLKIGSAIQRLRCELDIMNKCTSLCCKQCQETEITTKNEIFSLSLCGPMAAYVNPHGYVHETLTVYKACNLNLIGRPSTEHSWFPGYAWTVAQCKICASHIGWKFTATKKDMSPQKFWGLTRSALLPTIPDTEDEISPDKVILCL
assay overview: Protac activity at CRBN/TTK in human HCT-116 cells assessed as TTK degradation by measuring maximum degradation after 6 hrs by Western blotting analysis relative to control
Format: cell-based
assay endpoint: Emax (%)

1) CCC(=O)N[C@H]1CC[C@@H](n2c(=O)cc(C)c3cnc(Nc4ccc(N5CCN(C(=O)CCCCCCCC#Cc6cccc7c6C(=O)N(C6CCC(=O)NC6=O)C7)CC5)cc4OC)nc32)CC1 (stereo not given in full): 37
2) CCC(=O)N[C@H]1CC[C@@H](n2c(=O)cc(C)c3cnc(Nc4ccc(N5CCN(C(=O)CCCCCC#Cc6ccc7c(c6)C(=O)N(C6CCC(=O)NC6=O)C7)CC5)cc4OC)nc32)CC1 (stereo not given in full): 77
3) CCC(=O)N[C@H]1CC[C@@H](n2c(=O)cc(C)c3cnc(Nc4ccc(N5CCN(C(=O)CCCC#Cc6cccc7c6C(=O)N(C6CCC(=O)NC6=O)C7)CC5)cc4OC)nc32)CC1 (stereo not given in full): 28
4) CCC(=O)N[C@H]1CC[C@@H](n2c(=O)cc(C)c3cnc(Nc4ccc(N5CCN(C(=O)CCCCCCCCCC#Cc6ccc7c(c6)CN(C6CCC(=O)NC6=O)C7=O)CC5)cc4OC)nc32)CC1 (stereo not given in full): 83
5) CCC(=O)N[C@H]1CC[C@@H](n2c(=O)cc(C)c3cnc(Nc4ccc(N5CCN(C(=O)CCCCCC#Cc6ccc7c(c6)CN(C6CCC(=O)NC6=O)C7=O)CC5)cc4OC)nc32)CC1 (stereo not given in full): 61
